result type: melting point

{"smiles str": "O=C(O)CCc1cn(Cc2ccc(OCc3ccsc3)cc2)cc1-c1ccccc1", "endpoint result": "118 to 119 °C"}

Briefly, melting point measured for CCOc1nn(Cc2ccc(OCc3nc(-c4ccccc4)ccc3Cl)cc2)cc1CCC(=O)O : 120 to 121 °C

Briefly, melting point measured for O=C(O)CCc1cn(Cc2ccc(OCc3ccc(-c4ccccc4)nc3)cc2)nc1-c1ccccc1 : 155 to 156 °C

Briefly, melting point measured for CCOc1nn(Cc2ccc(OCc3cccc(-c4ccccc4)n3)cc2)cc1CCC(=O)O : 95 to 96 °C

Briefly, melting point measured for O=C(O)CCc1cn(Cc2ccc3cc(OCc4cccnc4)ccc3c2)cc1-c1ccccc1 : 158 to 159 °C

Briefly, melting point measured for Cc1ncccc1COc1ccc(Cn2cc(CCC(=O)O)c(-c3ccccc3)c2)cc1 : 158 to 159 °C

Briefly, melting point measured for Cc1oc(-c2ccccc2)nc1COc1ccc(Cn2cc(CCC(=O)O)c(-c3ccccn3)c2)cc1 : 155 to 156 °C

Briefly, melting point measured for CCOc1nn(Cc2ccnc(OCc3cn4c(Cl)cccc4n3)c2)cc1CCC(=O)O : 160 to 161 °C

Briefly, melting point measured for Cc1oc(-c2ccccc2)nc1COc1ccc(Cn2cc(CCC(=O)O)c(-c3ccc(C(F)(F)F)cc3)n2)cc1 : 149 to 150 °C

Briefly, melting point measured for O=C(O)CCc1cn(Cc2ccc3cc(OCc4ccccc4F)ccc3c2)cc1-c1ccccc1 : 143 to 144 °C

Briefly, melting point measured for CCOc1nn(Cc2ccc(OCc3ccc4ccccc4n3)cc2)cc1CCC(=O)O : 140 to 141 °C

Briefly, melting point measured for O=C(O)Cc1cn(Cc2ccc(OCc3csc(-c4ccccc4)n3)nc2)nc1-c1ccccc1 : 118 to 119 °C

Briefly, melting point measured for COc1cc(COc2nn(Cc3ccc(Oc4ccccc4)cc3)cc2C(N)=O)ccc1OCc1nc(-c2ccco2)oc1C : 105 to 106 °C

Briefly, melting point measured for O=C(O)CCc1cn(Cc2ccc(OCc3csc(-c4ccccc4)n3)cc2)cc1-c1ccccc1 : 111 to 112 °C

Briefly, melting point measured for Cc1oc(-c2ccccc2)nc1COc1ccc(Cn2cc(/C=C/C(=O)O)c(-c3ccccc3)c2)cc1 : 154 to 155 °C

Briefly, melting point measured for O=C(O)CCc1cn(Cc2ccc(OCc3ccc(-c4ccccc4)nc3)cc2)cc1-c1ccccc1 : 185 to 186 °C

Briefly, melting point measured for CCOC(=O)/C=C/c1cn(Cc2ccc(OCc3ccccc3)cc2)nc1-c1ccccc1 : 94 to 95 °C

Briefly, melting point measured for CCOC(=O)Cc1cn(Cc2ccc(OCc3csc(-c4ccccc4)n3)nc2)nc1-c1ccccc1 : 75 to 76 °C

Briefly, melting point measured for Cc1oc(-c2ccccc2)nc1COc1nn(Cc2ccc(Oc3ccccc3)cc2)cc1C(N)=O : 158 to 159 °C

Briefly, melting point measured for CCOc1nn(Cc2ccc(OCc3nc(-c4ccccc4)oc3C)nc2)cc1CC(=O)O : 126 to 127 °C

Briefly, melting point measured for Cc1oc(-c2ccccc2)nc1COc1ccc(Cn2cc(CCC(=O)O)c(-c3ccccc3)c2)cn1 : 123 to 124 °C

Hello, the source for this data is patent US7179823B1, in case you need it.
